Cited source for all entries: patent US20260201064A1

- target: T1, recombinant human ASM protein (human, UniProt P17405 47-630)
- T1 construct: Recombinant human ASM in solution; also called acid sphingomyelinase (ASM) protein
- T1 sequence: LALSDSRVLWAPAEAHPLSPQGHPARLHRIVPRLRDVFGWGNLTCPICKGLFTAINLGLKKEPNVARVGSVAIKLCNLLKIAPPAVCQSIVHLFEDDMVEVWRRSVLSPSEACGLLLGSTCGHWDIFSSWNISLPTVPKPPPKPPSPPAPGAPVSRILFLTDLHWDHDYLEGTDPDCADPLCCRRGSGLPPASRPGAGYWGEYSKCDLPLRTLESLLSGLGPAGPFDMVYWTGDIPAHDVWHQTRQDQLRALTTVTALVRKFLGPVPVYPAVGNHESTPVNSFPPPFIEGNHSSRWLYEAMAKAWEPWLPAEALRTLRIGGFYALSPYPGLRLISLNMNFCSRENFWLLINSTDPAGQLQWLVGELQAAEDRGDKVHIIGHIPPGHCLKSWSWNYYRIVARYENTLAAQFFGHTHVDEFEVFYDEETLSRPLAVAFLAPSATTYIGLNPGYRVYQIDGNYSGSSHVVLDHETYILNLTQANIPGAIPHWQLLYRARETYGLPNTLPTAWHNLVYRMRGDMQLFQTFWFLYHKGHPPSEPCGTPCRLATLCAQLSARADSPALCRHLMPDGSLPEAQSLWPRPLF
- test.description: BLI (Octet), antibody on AHC sensor
reported.metric: kon (M⁻¹ s⁻¹)
Field: numeric (M⁻¹ s⁻¹). Do not append units.

Please review the following examples before continuing.
#9104v-L11 (antibody, human IgG4 S228P, lambda, V domains shown, Full-length IgG, lambda) VH: EVQLLESGGGLVQPGGSLRLSCAASGFTFSNYYMSWVRQAPGKGLEWVSGIYYGSGNIYYADSVKGRFTISRDNSKNTLYLQMNSLRAEDTAVYYCARDTPGFDYWGQGTLVTVSS VL: QSVLTQPPSASGTPGQRVTISCTGSSSNIGNNAVNWYQQLPGTAPKLLIYYDIFQPSGVPDRFSGSKSGTSASLAISGLRSEDEADYYCGAWDYSLSAYVFGGGTKLTVLG	259000
#9104v-L32 (antibody, human IgG4 S228P, lambda, V domains shown, Full-length IgG, lambda) VH: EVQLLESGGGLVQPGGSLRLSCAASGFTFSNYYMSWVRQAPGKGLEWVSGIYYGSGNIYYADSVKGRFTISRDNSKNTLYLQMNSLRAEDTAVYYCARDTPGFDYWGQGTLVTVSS VL: QSVLTQPPSASGTPGQRVTISCTGSSSNIGNNAVNWYQQLPGTAPKLLIYYDSYLPSGVPDRFSGSKSGTSASLAISGLRSEDEADYYCGAWDYSLSAYVFGGGTKLTVLG	321000

-- ask # input binder: #9104v-L47 (antibody, human IgG4 S228P, lambda, V domains shown, Full-length IgG, lambda) VH: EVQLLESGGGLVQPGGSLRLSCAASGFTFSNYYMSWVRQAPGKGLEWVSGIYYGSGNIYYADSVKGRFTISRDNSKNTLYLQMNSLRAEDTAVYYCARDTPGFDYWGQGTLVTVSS VL: QSVLTQPPSASGTPGQRVTISCTGSSSNIGNNAVNWYQQLPGTAPKLLIYYDSYTPSGVPDRFSGSKSGTSASLAISGLRSEDEADYYCGAWDYSLSAYVFGGGTKLTVLG ; wanted: its kon
-- reply 294000
